Catalogue of protein stability index readings, one per entry.
tested on: Saccharomyces cerevisiae; experiment: protein stability index of tFT-peptide fusion (C-terminal peptide) (PSI (0-1 scale)); higher = more stable (slower turnover); details: genetic background: wild type; temperature: 37 C

sequence-chain	subject-of-test	protein stability index
SFFFSFFPYFFC	Saccharomyces cerevisiae	0.561
RLCKGQKYTKIN	Saccharomyces cerevisiae	0.155
LGFHFFFTLIFF	Saccharomyces cerevisiae	0.37
SFVGCWFVLLVR	Saccharomyces cerevisiae	0.159
CGILACSVCTFF	Saccharomyces cerevisiae	0.61

* * *

test system: Saccharomyces cerevisiae; experiment: protein stability index of tFT-peptide fusion (C-terminal peptide) (PSI (0-1 scale)); higher = more stable (slower turnover); conditions: genetic background: wild type; temperature: 30 C

sequence-chain	subject-of-test	protein stability index
GCFRGLYVVRGG	Saccharomyces cerevisiae	0.647
LTFWLGSLGLWG	Saccharomyces cerevisiae	0.72
FGNFCCRWSLGP	Saccharomyces cerevisiae	0.66
TYPRPGSSIWLR	Saccharomyces cerevisiae	0.572
HQVSLVLGGYLL	Saccharomyces cerevisiae	0.702
GGGSGGRRLVRF	Saccharomyces cerevisiae	0.726

* * *

system: Saccharomyces cerevisiae; assay: protein stability index of tFT-peptide fusion (C-terminal peptide) (PSI (0-1 scale)); higher = more stable (slower turnover); details: genetic background: wild type; temperature: 37 C
In this section, each of the sequences is paired with its reported protein stability index.

sequence-chain	protein stability index
GIANHAMVIVVL	0.468
FFRLFAPLLVVL	0.184
ILHRRCGLLLQI	0.416
VFRLLALLWRFF	0.42
SVMTFVFFISAF	0.396
FRVILISACESV	0.538
GVRRRQLIWSVC	0.28
LFFVCSGVVFSF	0.558
VIRFNSAPRFLV	0.236
FASALAPLSAVA	0.509
LSIGCRCLWGWF	0.708
RSLSWCTKRRCC	0.454
ISVSVVFFVLRF	0.411
YMNLYKNVISVT	0.457
WIVQCCLYVPVQ	0.356
FVFFRFSLLFFF	0.356
WHVSLRFAFYVF	0.263
LFLSFLLLYFRP	0.402
LPLCGLLLFLFF	0.492

* * *

system: Saccharomyces cerevisiae; test: protein stability index of tFT-peptide fusion (C-terminal peptide) (PSI (0-1 scale)); higher = more stable (slower turnover); details: genetic background: wild type; temperature: 30 C
Returns one of Condition met or Condition not met; Condition met when protein stability index is >= 0.7.

sequence-chain	category
FGCLFILRCSFL	Condition not met
LLPVFFISYPSS	Condition not met
WFRPPSVPEEEY	Condition met
GGPESMDILRFR	Condition not met
VPGFCYKERAVV	Condition not met
LETIFEDFGKYR	Condition met
YILPTPKAFRSF	Condition met
PAPPPPPRPPPS	Condition not met
GYKLSIQGYNRK	Condition not met
GLPWRRVGGGAG	Condition not met
CEAGAGTGGADL	Condition not met
GPTGPATQNDDS	Condition not met
FFALYGHILGLF	Condition not met
FCSSSSFMCFVQ	Condition not met
APSPPFLPLTLT	Condition not met
GGCSCLGVGCLS	Condition not met
GLRCSRVSFFFW	Condition not met
LSEVFLSMNVVL	Condition not met

* * *

system: Saccharomyces cerevisiae; assay: protein stability index of tFT-peptide fusion (C-terminal peptide) (PSI (0-1 scale)); higher = more stable (slower turnover); settings: genetic background: das1 deletion; temperature: 37 C
// protein stability index lookup, one value per entry
endpoint-label: protein stability index

sequence-chain	endpoint-label	reported-value
LVCLVFVRSSLV	protein stability index	0.529
IYPPVSVTNLLV	protein stability index	0.723
LLLFTPFYLLLR	protein stability index	0.27
CGVWVVVASAYR	protein stability index	0.494
KEKGVTKIRISS	protein stability index	0.707
KALSSSYFGTRL	protein stability index	0.743
GLLSLSGLRWFC	protein stability index	0.763
SSMSAVFRLQVC	protein stability index	0.662
WVIWFFVAACLR	protein stability index	0.347
PVPERTSATEPP	protein stability index	0.667
PATPPLRFPPSA	protein stability index	0.736
SYGNGIPIRMLH	protein stability index	0.728
PLPSRAPVQFLL	protein stability index	0.727
CLWLRCIVSILP	protein stability index	0.321
VIRFNSAPRFLV	protein stability index	0.744

* * *

system: Saccharomyces cerevisiae; experiment: protein stability index of tFT-peptide fusion (C-terminal peptide) (PSI (0-1 scale)); higher = more stable (slower turnover); details: genetic background: das1 deletion; temperature: 37 C
Respond with label 1 for protein stability index values of 0.5 and above, label 0 for values below.

sequence-chain	category
VLVVLVVCRRAE	label 0
RALSLPPLLLVL	label 0
SFVGCWFVLLVR	label 0
IRRWGRCRVRCM	label 1
VVFFFKFFLLRL	label 0
SARSYLTERLLA	label 1
LVFFLFFFRCFS	label 1
ARSGGYLMVVLV	label 1
RCQILSYCLLFV	label 0
FMCCFWFFWLGF	label 1
ASFVCWSVCALG	label 1
PTYTKYRTRQIN	label 1
MFTIYISFVFAF	label 0
CWLFVWVRVISL	label 0
VYRRKLDRLLCI	label 1
QIDYSVYIFALG	label 0
GVVCWLVVTGFL	label 1

* * *

test system: Saccharomyces cerevisiae; assay: protein stability index of tFT-peptide fusion (C-terminal peptide) (PSI (0-1 scale)); higher = more stable (slower turnover); conditions: genetic background: wild type; temperature: 30 C
Decision: protein stability index compared against 0.2; not below it gives MET, below it gives NOT MET.

sequence-chain	category
CGVWVVVASAYR	MET
RRPVHTHTSVSP	MET
LVFGFSLILRVG	NOT MET
RRLAVWCDFRSL	MET
VYRRKLDRLLCI	NOT MET
RLRWLSPMTHVG	MET
RVWIVCYHVSSY	MET
WHVSLRFAFYVF	NOT MET
RFFFASRYIECF	MET
CFSYLLIVLLFP	NOT MET
YQHSRSGRNKII	NOT MET
LCIRHFRLLELL	NOT MET
GIANHAMVIVVL	MET
WYVRVYVLSVES	NOT MET
YYFCMYFKVTLC	NOT MET
LPTGLKTFLIAF	MET
GSLPERPLRYVC	NOT MET
LIVCVKAITIVS	NOT MET
VVWVYSMLFSIW	MET
VLGARWHWIYIA	NOT MET
YPFIPLIVCGFF	MET
VGVVLWWVVLMV	NOT MET
VPSPWVFSLFLH	NOT MET
LNSSVLRLRFFV	NOT MET
WGIPRRPTLFIP	MET
FFVYFFLLLFWF	NOT MET
GLYMCSVGCWFR	MET
KCEKGLYCCIAF	MET
LLHFVLYFLSCT	MET
CGLYNQFCLFLY	MET
VVISRVLAIRLL	NOT MET
FVVSCLSWVFLF	NOT MET
VVGVVVCWGRGW	MET
IYPPVSVTNLLV	MET
CLLSRYRVFFLG	NOT MET

* * *

# protein stability index values compiled below
test system: Saccharomyces cerevisiae; test: protein stability index of tFT-peptide fusion (C-terminal peptide) (PSI (0-1 scale)); higher = more stable (slower turnover); conditions: genetic background: wild type; temperature: 30 C
endpoint-label: protein stability index

sequence-chain	subject-of-test	reported-value
VSPATFLFYFFF	Saccharomyces cerevisiae	0.497
PDRQVTAFPCFW	Saccharomyces cerevisiae	0.679
GEQAGLSLTAGP	Saccharomyces cerevisiae	0.678
LFRRVASILPRD	Saccharomyces cerevisiae	0.668
DHLPSPRPRPPP	Saccharomyces cerevisiae	0.729
EGGRGGVLMRGV	Saccharomyces cerevisiae	0.727
RGVIWLVCGGPC	Saccharomyces cerevisiae	0.54
PFVCPHLPAPPP	Saccharomyces cerevisiae	0.791
SPTRALYISFFY	Saccharomyces cerevisiae	0.655

* * *

protein stability index: recorded values
system: Saccharomyces cerevisiae; experiment: protein stability index of tFT-peptide fusion in deletion strain of DAS1 (PSI (0-1 scale)); higher = more stable (slower turnover)

sequence-chain	protein stability index
RLIQPLPVRFLN	0.6
PDKRNRLIKLLN	0.592
VRGAVGGWVLVG	0.659
LVVYLSCVACINW	0.0403
QRGAVGGWRLVG	0.655
ARWREGLWRGAS	0.695
LMILRQKMNHQN	0.676
PDKRNMLIKLLN	0.722
RLINPLPVQFLN	0.668
PDKRNHLIKLLH	0.612
PSLAASFWRVVN	0.67
ARWRVGDWRGAS	0.714
VRGAVGGWDLVG	0.656
KKAKKGQKQKIN	0.624
LVVYLVCVACIN	0.0307
LRVYLSCVACIN	0.121
VRGAVGGWRWVG	0.682
PDARNHLIKLLN	0.612
PSLAASVWRVVG	0.661
FSHRWTFRYWVN	0.568
LKIDRQKMNHQN	0.676
LVVYLSCVACWN	0.0568
FLMRWTFRYWVN	0.342
FKMRWTFRYWVN	0.735
CTSCGYKFRTGN	0.701
PSLAASKWRVVG	0.666
NRGAVGGWRLVG	0.665
FSMRWTFMYWVN	0.456
KKHVKGQKQKIN	0.606
CTSYGYKFRTNN	0.688
CTSCGYKFRTNI	0.701
PDKRNHEIKLLN	0.596
PDKRNHLIKLLT	0.622
KKHKKGQKDKIN	0.63
PDKRNHLIKLHN	0.593
LKIARQKMNHQN	0.694
LTSCGYKFRTNN	0.666
KGHKKGQKQKIN	0.57
KKHKKGQKQKIR	0.595
LKILRTKMNHQN	0.678
KKHKKGQKQKVN	0.599
CTSCIYKFRTNN	0.666
LVVYLSCDACIN	0.191
LKILRQKMNQQN	0.676
FSLAASFWRVVG	0.671
MTSCGYKFRTNN	0.688
PKKRNHLIKLLN	0.596
